system: Staphylococcus epidermidis IAM 1296
Structures can show the parent of a compound that is named as a salt.
readoutKind: MIC (µg/mL)
Just the number please, in µg/mL, no unit attached.

With Staphylococcus epidermidis IAM 1296 as the test system, CN1Cc2csc3c(C(=O)O)c(=O)c4cc(F)c(N5CCN(C)C(CO)C5)c1c4n23 (stereo not shown) [Compound (I), hydrochloride] showed MIC of 0.2

Reported MIC (Staphylococcus epidermidis IAM 1296) for entry CN1Cc2csc3c(C(=O)O)c(=O)c4cc(F)c(N5CCN(C)C(CF)C5)c1c4n23 (stereo not shown) [Compound (K), hydrochloride] is 0.1

The molecule CN1Cc2csc3c(C(=O)O)c(=O)c4cc(F)c(N5CCOC(CCl)C5)c1c4n23 (stereo not shown) , when measured on Staphylococcus epidermidis IAM 1296, yielded MIC of 0.025

Fill in: Staphylococcus epidermidis IAM 1296 MIC for CN1Cc2csc3c(C(=O)O)c(=O)c4cc(F)c(N5CCC(=O)CC5)c1c4n23 = 0.013
